- Assay Details: PhoP-dependent GFP reporter repression – Salmonella Typhimurium, primary screen (AID 1863);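 further: 0% = low Mg2+ inducing control and 100% = high Mg2+ repressing control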
- Condition Details: S. Typhimurium PhoP-regulated promoter GFP reporter, 4 h; at 50 µM; hits give high values
Screen size: about 300,000 compounds; about 480 (0.16%) were called active. Not all results are given here. Potency and affinity values are given separately.
Quantity Name: inhibition (%)
A number alone suffices; assume %.

Memo: "Oc1ccc(CNc2ccccc2)c2cccnc12" , reported inhibition: 5.74

Memo: "CCn1ncc(Cl)c1C(=O)NC(=S)Nc1c(C)cc(C)cc1[N+](=O)[O-]" , reported inhibition: 8.05

Memo: "Oc1ccc(CN2CCC(Cc3ccccc3)CC2)c2cccnc12" , reported inhibition: 10.7

Memo: S=C(NCC1CCCO1)c1ccc(Br)cc1 (stereo not given) , reported inhibition: 2.88

Memo: "COc1ccc(Nc2c3c(nc4ccccc24)CCC3)cc1" , reported inhibition: 12.7

Memo: "COc1ccc(OC)c(NC(=O)C2CCN(C(=O)c3cccs3)CC2)c1" , reported inhibition: 2.52

Memo: "Cc1ccc2oc(=O)c3cnn(CC(=O)N4CCCc5ccccc54)c3c2c1" , reported inhibition: -8.23

Memo: "COC(=O)c1ccc(Nc2c([N+](=O)[O-])ccc3nonc23)cc1" , reported inhibition: -2.08

Memo: "O=C(Oc1c(Cl)cc(Cl)c2cccnc12)c1cccs1" , reported inhibition: 14.3

Memo: "Oc1c(I)cc(I)c2cccnc12" , reported inhibition: -1.32

Memo: "COc1ccc(-c2cccc(NC(=O)COc3ccc(Cl)cc3)c2)nn1" , reported inhibition: -8.03

Memo: CCS(=O)(=O)N1CCCC(C(=O)NCC2CCCO2)C1 (stereo not given) , reported inhibition: 9.13

Memo: "Clc1ccccc1OCCCn1ccnc1" , reported inhibition: 2.45

Memo: "c1ccc2cc(OCCCn3ccnc3)ccc2c1" , reported inhibition: -2

Memo: "Cc1cc(C)nc(-n2nc(C)cc2NC(=O)CNCc2ccccc2)n1" , reported inhibition: 1.3

Memo: "O=C(NCCCn1ccnc1)/C(=C\c1ccc(Br)cc1)NC(=O)c1ccccc1F" , reported inhibition: -5.42

Memo: "Oc1ccc(CN2CCN(c3ccccc3)CC2)c2cccnc12" , reported inhibition: -1.49

Memo: "COCc1cc(CN2CCN(C)CC2)c(O)c2ncccc12" , reported inhibition: 6.95

Memo: "Oc1c(Cl)cc(CN2CCCCC2)c2cccnc12" , reported inhibition: 14.1

Memo: "CCCn1nc(C(=O)OCC(=O)Nc2cccc(S(N)(=O)=O)c2)c2ccccc2c1=O" , reported inhibition: -1.14

Memo: "CCOc1ccc(Nc2nc(N)c3ccccc3n2)cc1" , reported inhibition: 29.9

Memo: "COc1ccc(Nc2c3ccccc3nc3ccccc23)cc1" , reported inhibition: -2.51

Memo: "Nc1n[nH]c(N)c1N=Nc1ccccc1F" , reported inhibition: -3.09

Memo: "Cc1cc(Nc2cccc(O)c2)c2ccccc2n1" , reported inhibition: 13.6

Memo: CCCCCOC(=O)NCC(O)c1ccccc1 (stereo not given) , reported inhibition: 10.7

These entries and their values trace back to PubChem BioAssay AID1863.
